- Test system: NK-YS (IL-2 2.5 ng/mL)
- Assay Protocol: percent inhibition of viability; higher = more inhibition
- Assay Conditions: 72 h; 1000 nM
For each record, write down the corresponding percent inhibition of viability.
Give just the number in %; leave the unit off.

Supply measured percent inhibition of viability of C[C@@H](C(=O)O)c1ccc(-c2ccccc2)c(F)c1 [Tarenflurbil] (max concentration tested 10000 nM) in your reply. 1.37

Supply measured percent inhibition of viability of COc1cc(OC)c(/C=C/S(=O)(=O)Cc2ccc(OC)c(NCC(=O)O)c2)c(OC)c1 [Rigosertib] (max concentration tested 10000 nM) in your reply. 76.8

Supply measured percent inhibition of viability of O=C(CCCCCCC(=O)Nc1ccccc1)NO [Vorinostat] (max concentration tested 10000 nM) in your reply. 40.2

Supply measured percent inhibition of viability of NS(=O)(=O)OC[C@@H]1C[C@@H](n2ccc3c(N[C@H]4CCc5ccccc54)ncnc32)C[C@@H]1O [Pevonedistat] (max concentration tested 10000 nM) in your reply. 78.1

Supply measured percent inhibition of viability of Cn1c(=O)n(-c2ccc(C(C)(C)C#N)cc2)c2c3cc(-c4cnc5ccccc5c4)ccc3ncc21 [Dactolisib] (max concentration tested 1000 nM) in your reply. 82.3

Supply measured percent inhibition of viability of Cc1cc(Nc2nc(N[C@@H](C)c3ncc(F)cn3)ncc2Cl)[nH]n1 [AZD1480] (max concentration tested 1000 nM) in your reply. 65.3

---

- System: KAI3 (IL-2 2.5 ng/mL)
- Assay Protocol: percent inhibition of viability; higher = more inhibition
- Assay Conditions: 72 h; 10000 nM
For each record, write down the corresponding percent inhibition of viability.
# output: numeric value plus its unit

Supply measured percent inhibition of viability of Oc1nc(-c2ccc(C(F)(F)F)cc2)nc2c1CSCC2 [XAV-939] (max concentration tested 10000 nM) in your reply. 5.97%

Supply measured percent inhibition of viability of CN(N=O)C(=O)N[C@@H](C=O)[C@@H](O)[C@H](O)[C@H](O)CO [Streptozocin] (max concentration tested 10000 nM) in your reply. -3.23%

Supply measured percent inhibition of viability of CNC(=O)c1ccc2cc([C@@]3(O)CCn4cncc43)ccc2c1 [Orteronel] (max concentration tested 10000 nM) in your reply. -11.3%

Supply measured percent inhibition of viability of CC1(C)CCC(c2ccc(Cl)cc2)=C(CN2CCN(c3ccc(C(=O)NS(=O)(=O)c4ccc(N[C@H](CCN5CCOCC5)CSc5ccccc5)c(S(=O)(=O)C(F)(F)F)c4)cc3)CC2)C1 [Navitoclax] (max concentration tested 10000 nM) in your reply. 97.4%

---

- Tested on: normal primary NK cells, pool 1 (3 donors), resting (IL-2 0 ng/mL)
- Assay Protocol: percent inhibition of viability; higher = more inhibition
- Assay Conditions: 72 h; 10000 nM
Label scheme for percent inhibition of viability: range A: < 10%; range B: ≥ 10% and < 80%; range C: ≥ 80%

Which of the defined bands does the recorded percent inhibition of viability of O=C(O)c1ccc(-c2c[nH]c3ncc(-c4ccccc4)cc23)cc1C1CCCC1 (max concentration tested 10000 nM) sit within? range B

Which of the defined bands does the recorded percent inhibition of viability of Cc1c(CN2CCN(C(=O)[C@H](C)O)CC2)sc2c(N3CCOCC3)nc(-c3cnc(N)nc3)nc12 [Apitolisib] (max concentration tested 10000 nM) sit within? range B

Which of the defined bands does the recorded percent inhibition of viability of O=C(CCCCCCNC(=O)c1cnc(N(c2ccccc2)c2ccccc2)nc1)NO [Rocilinostat] (max concentration tested 10000 nM) sit within? range C

Which of the defined bands does the recorded percent inhibition of viability of Nc1nc(Nc2ccc3c(c2)CC[C@@H](N2CCCC2)CC3)nn1-c1cc2c(nn1)-c1ccccc1CCC2 [BGB324] (max concentration tested 10000 nM) sit within? range C

Which of the defined bands does the recorded percent inhibition of viability of CNC(=O)c1ccccc1Sc1ccc2c(/C=C/c3ccccn3)n[nH]c2c1 [Axitinib] (max concentration tested 10000 nM) sit within? range B

Which of the defined bands does the recorded percent inhibition of viability of C=CCn1c(=O)c2cnc(Nc3ccc(N4CCN(C)CC4)cc3)nc2n1-c1cccc(C(C)(C)O)n1 [MK1775] (max concentration tested 10000 nM) sit within? range A

Which of the defined bands does the recorded percent inhibition of viability of Nc1nc(Cl)nc2c1ncn2[C@@H]1O[C@H](CO)[C@@H](O)[C@@H]1F [Clofarabine] (max concentration tested 10000 nM) sit within? range C

Which of the defined bands does the recorded percent inhibition of viability of CO[C@@H](C(=O)N1Cc2[nH]nc(NC(=O)c3ccc(N4CCN(C)CC4)cc3)c2C1)c1ccccc1 [Danusertib] (max concentration tested 10000 nM) sit within? range A

Which of the defined bands does the recorded percent inhibition of viability of NS(=O)(=O)OC[C@@H]1C[C@@H](n2ccc3c(N[C@H]4CCc5ccccc54)ncnc32)C[C@@H]1O [Pevonedistat] (max concentration tested 10000 nM) sit within? range A

Which of the defined bands does the recorded percent inhibition of viability of CCC(C)(C)C(=O)O[C@H]1C[C@@H](C)C=C2C=C[C@H](C)[C@H](CC[C@@H]3C[C@@H](O)CC(=O)O3)[C@H]21 [Simvastatin] (max concentration tested 10000 nM) sit within? range B

---

- Test system: normal primary NK cells, pool 2 (3 donors) (IL-2 2.5 ng/mL)
- Assay Protocol: relative IC50 (inflection point of fitted viability curve, relative to fitted max inhibition); higher = less sensitive
- Assay Conditions: 72 h
Value Type: relative IC50 (nM)
Give just the number in nM; leave the unit off.

Supply measured relative IC50 of CC(C)Oc1cc(Nc2nc(N[C@@H](C)c3ccc(F)cn3)ncc2Cl)n[nH]1 in your reply. 606

Supply measured relative IC50 of CC/C(=C(\c1ccccc1)c1ccc(OCCN(C)C)cc1)c1ccccc1 in your reply. 2590

Supply measured relative IC50 of O=C(CCCCCCNC(=O)c1cnc(N(c2ccccc2)c2ccccc2)nc1)NO in your reply. 1550

Supply measured relative IC50 of Nc1nc(Nc2ccc3c(c2)CC[C@@H](N2CCCC2)CC3)nn1-c1cc2c(nn1)-c1ccccc1CCC2 in your reply. 1070

Supply measured relative IC50 of C[C@@H]1CN(CC(=O)Nc2ccc3c(c2)Cc2cccc(-c4cc(=O)cc(N5CCOCC5)o4)c2S3)C[C@H](C)O1 in your reply. 5660

Supply measured relative IC50 of CC(C)n1cnc2c(NCCc3ccc(O)cc3)nc(-c3csc4ccccc34)nc21 in your reply. 3420

Supply measured relative IC50 of Cc1ccc(C(=O)Nc2ccc(CN3CCN(C)CC3)c(C(F)(F)F)c2)cc1C#Cc1cnc2cccnn12 in your reply. 335

---

- Test system: IMC-1 (IL-2 20 ng/mL)
- Assay Protocol: percent inhibition of viability; higher = more inhibition
- Assay Conditions: 72 h; 100 nM
For each record, write down the corresponding percent inhibition of viability.
Give just the number in %; leave the unit off.

Supply measured percent inhibition of viability of O=C(CCCCCCC(=O)Nc1ccc([C@H]2O[C@@H](CSc3nc(-c4ccccc4)c(-c4ccccc4)o3)C[C@@H](c3ccc(CO)cc3)O2)cc1)NO [Tubacin] (max concentration tested 10000 nM) in your reply. 3.12

Supply measured percent inhibition of viability of O=C(NC[C@H](O)CO)c1ccncc1Nc1ccc(I)cc1F [Pimasertib] (max concentration tested 10000 nM) in your reply. -9.96

Supply measured percent inhibition of viability of CCn1c(C(=O)N(C2CC2)C2CC2)cc2c3c(ncn3C)c(Nc3cc(C)n(C)n3)nc21 (max concentration tested 10000 nM) in your reply. 0.12

Supply measured percent inhibition of viability of CC/C(=C(\c1ccc(O)cc1)c1ccc(OCCN(C)C)cc1)c1ccccc1 [4-hydroxytamoxifen] (max concentration tested 10000 nM) in your reply. 3.38

---

- Tested on: IMC-1 (IL-2 20 ng/mL)
- Assay Protocol: drug sensitivity score (DSS) (DSS units); higher = more sensitive; extreme values may be limits of the assay
- Assay Conditions: 72 h
Value Type: drug sensitivity score
No unit in the answer, please; the number alone is enough.

Supply measured drug sensitivity score of CC(=O)OC[C@H]1O[C@@H]([S-])[C@H](OC(C)=O)[C@@H](OC(C)=O)[C@@H]1OC(C)=O.CCP(CC)CC.[Au+] [Auranofin] (max concentration tested 2500 nM) in your reply. 5.76

Supply measured drug sensitivity score of c1ccc(Cn2c(-c3ccc(OC[C@H](C4CCNCC4)n4c(-c5ccccc5)nc5ccccc54)cc3)nc3ccccc32)cc1 [deltarasin] (max concentration tested 10000 nM) in your reply. 5

Supply measured drug sensitivity score of Cc1cc2c(F)c(Oc3ncnn4cc(OC[C@@H](C)O)c(C)c34)ccc2[nH]1 [Brivanib] (max concentration tested 1000 nM) in your reply. 0

Supply measured drug sensitivity score of O=C(CCCCCCC(=O)Nc1ccccc1)NO [Vorinostat] (max concentration tested 10000 nM) in your reply. 7.28

Supply measured drug sensitivity score of Cn1c(=O)n(-c2ccc(C(C)(C)C#N)cc2)c2c3cc(-c4cnc5ccccc5c4)ccc3ncc21 [Dactolisib] (max concentration tested 1000 nM) in your reply. 4.51

Supply measured drug sensitivity score of COc1ccc2c(OCc3nnc4ccc(-c5ccccc5)nn34)ccnc2c1 [AMG-208] (max concentration tested 2500 nM) in your reply. 0.02
